- MEASURED TARGET: Cytochrome P450 2C19 (Homo sapiens)
- ASSAY NOTES: Cytochrome panel assay with activity outcomes
- SETUP CONDITIONS: recombinant CYP, pro-luciferin dealkylation, luminescence, p450-cyp2c19; series mostly up to 57.1 µM
- Procedure: The P450 gene superfamily is involved in the metabolism and clearance of xenobiotics. This assay used various human CYP P450 isozymes to measure the dealkylation of various pro-luciferin substrates to luciferin. The luciferin is then measured by luminescence after the addition of a luciferase detection reagent. […] Inhibitors and some substrates limit the production of luciferin, and decrease measured luminescence. […] 8, Detection, 1 sec, ViewLux luminescent read […]
The campaign covered roughly 16,000 compounds. About 5,800 (36%) were called active. Not shown: some 23% with an inconclusive outcome. Calls follow the shape of the dose curve; as a rule, active = well fitted curve in the direction sought with a large enough effect; inconclusive = small, poorly fitted or top-dose-only effect, or effect the other way; inactive = no such curve, though single readings can be large or run the other way. Some of the results follow.
Outcome field: choose from Y (active), N (inactive)

Exam item: # fetch the recorded call for COc1ccccc1N1CCN(C(=O)C(NS(=O)(=O)c2cccs2)c2ccccc2)CC1 (stereo unspecified) here
Marked response: Y

Exam item: # fetch the recorded call for CC(=O)Nc1ccc(S(=O)(=O)NC(CC(=O)NCCC2=CCCCC2)C(C)C)cc1 (stereo unspecified) here
Marked response: Y

Exam item: # fetch the recorded call for `O=c1c(-c2cccc(F)c2)nc2cncnc2n1Cc1ccccc1Cl` here
Marked response: Y

Exam item: # fetch the recorded call for CC(C(=O)Nc1cccnc1)N1C(=O)C2C3C=CC(C3)C2C1=O (stereo unspecified) here
Marked response: N

Exam item: # fetch the recorded call for `CSc1c(-c2ccccc2)nc2ccc(Cl)cc2c1C(=O)O` here
Marked response: N

Exam item: # fetch the recorded call for `c1ccc(SC(Sc2ccccc2)c2ccc3c(c2)OCO3)cc1` here
Marked response: Y

Exam item: # fetch the recorded call for `CN1CCN(c2ncc3nc(-c4ccc(Cl)cc4)c(=O)n(Cc4cccs4)c3n2)CC1` here
Marked response: N

Exam item: # fetch the recorded call for O=C(C(NS(=O)(=O)c1cccs1)c1ccccc1)N1CCN(c2ccccc2)CC1 (stereo unspecified) here
Marked response: Y

Exam item: # fetch the recorded call for Cc1ccc(NC(=O)C(C)N2C(=O)C3C4CC(C(Br)C4Br)C3C2=O)cc1 (stereo unspecified) here
Marked response: Y

Exam item: # fetch the recorded call for CC(C)C(NS(=O)(=O)c1cccs1)C(=O)NCCN1CCN(c2ccccc2)CC1 (stereo unspecified) here
Marked response: Y

Exam item: # fetch the recorded call for CCn1c2ccccc2c2cc(N=C3SC(CC(=O)Nc4ccccc4)C(=O)N3C)ccc21 (stereo unspecified) here
Marked response: Y

Exam item: # fetch the recorded call for `CC(C)Nc1nc(Oc2ccc(Cl)cc2)cc(C(F)(F)F)n1` here
Marked response: Y

Exam item: # fetch the recorded call for `COc1cc2nc(SCc3ccc(Cl)cc3Cl)n(Cc3cccs3)c(=N)c2cc1OC` here
Marked response: Y

Exam item: # fetch the recorded call for `O=c1c(-c2cccc(Cl)c2)nc2cncnc2n1Cc1ccccc1Cl` here
Marked response: Y

Exam item: # fetch the recorded call for `O=c1c(-c2cccc(F)c2)nc2cncnc2n1C1CC1` here
Marked response: N

Exam item: # fetch the recorded call for CN(C(=S)Nc1ccccc1F)C1(c2ccccc2Cl)CCCCC1=O (stereo unspecified) here
Marked response: Y

Exam item: # fetch the recorded call for CC(C)c1ccc(CN(C(=O)C2COc3ccccc3O2)C2CCS(=O)(=O)C2)cc1 (stereo unspecified) here
Marked response: Y

Exam item: # fetch the recorded call for `COC(=O)N1CCC2(CC1)CCN(C(c1ccccc1)c1ccccc1)CC2` here
Marked response: N

Exam item: # fetch the recorded call for CCn1c2ccccc2c2cc(N=C3SC(CC(=O)Nc4ccccc4OC)C(=O)N3C)ccc21 (stereo unspecified) here
Marked response: Y

Exam item: # fetch the recorded call for CC(=O)Nc1ccc(S(=O)(=O)NC(CC(=O)NCCCN2CCOCC2)C(C)C)cc1 (stereo unspecified) here
Marked response: N

Exam item: # fetch the recorded call for CCOC(=O)C1=C(c2ccccc2)OC(N)=C(C#N)C1c1ccc(Cl)s1 (stereo unspecified) here
Marked response: Y
